Recorded values, source paper PMC4728423.

Biological target: human TRPC5 (Homo sapiens)
Construct: expressed in transfected cells
Sequence (Q9UL62 1-973): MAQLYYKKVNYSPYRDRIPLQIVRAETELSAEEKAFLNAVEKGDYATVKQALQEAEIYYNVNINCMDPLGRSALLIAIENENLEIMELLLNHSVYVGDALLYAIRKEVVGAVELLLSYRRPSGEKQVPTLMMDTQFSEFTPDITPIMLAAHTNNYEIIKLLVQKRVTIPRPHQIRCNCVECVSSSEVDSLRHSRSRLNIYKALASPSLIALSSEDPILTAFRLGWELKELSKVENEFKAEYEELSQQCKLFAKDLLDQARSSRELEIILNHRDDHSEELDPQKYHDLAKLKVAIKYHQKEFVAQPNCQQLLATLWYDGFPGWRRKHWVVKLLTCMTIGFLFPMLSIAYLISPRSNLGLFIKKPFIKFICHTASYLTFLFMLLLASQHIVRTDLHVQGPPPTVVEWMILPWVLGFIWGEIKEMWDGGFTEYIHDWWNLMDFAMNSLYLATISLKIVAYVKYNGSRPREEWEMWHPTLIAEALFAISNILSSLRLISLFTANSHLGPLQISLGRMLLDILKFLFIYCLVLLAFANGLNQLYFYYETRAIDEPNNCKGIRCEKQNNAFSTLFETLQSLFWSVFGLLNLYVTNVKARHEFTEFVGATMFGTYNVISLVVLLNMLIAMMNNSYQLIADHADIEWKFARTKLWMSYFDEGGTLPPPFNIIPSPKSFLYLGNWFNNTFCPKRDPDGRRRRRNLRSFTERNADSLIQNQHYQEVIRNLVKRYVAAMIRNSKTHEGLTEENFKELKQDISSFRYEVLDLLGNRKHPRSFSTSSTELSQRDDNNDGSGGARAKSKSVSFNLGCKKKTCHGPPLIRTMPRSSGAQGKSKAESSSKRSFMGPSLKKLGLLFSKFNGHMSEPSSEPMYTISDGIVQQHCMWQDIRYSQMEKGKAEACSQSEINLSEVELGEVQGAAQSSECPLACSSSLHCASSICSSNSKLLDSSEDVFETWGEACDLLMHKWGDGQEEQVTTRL
Experiment: Gd3+-evoked Ca2+ entry in TRPC5-expressing (Tet+) HEK 293 cells
Type: cell-based
Details: TRPC5 (Tet+) HEK 293, Gd3+, fura-2; read-out: IC50, inhibition of Gd3+-evoked Ca2+ entry
experimental_readout: IC50 (nM)

> print(dat)
                              test.smiles          measurement.target  unit.abbrev  assay.value
1  O=c1c(O)c(-c2ccccc2Br)oc2cc(O)cc(O)c12  human TRPC5 (Homo sapiens)           nM          280
